# subject_of_test: 5-hydroxytryptamine receptor 7 (Homo sapiens, UniProt P34969)
# Sequence (P34969 whole entry): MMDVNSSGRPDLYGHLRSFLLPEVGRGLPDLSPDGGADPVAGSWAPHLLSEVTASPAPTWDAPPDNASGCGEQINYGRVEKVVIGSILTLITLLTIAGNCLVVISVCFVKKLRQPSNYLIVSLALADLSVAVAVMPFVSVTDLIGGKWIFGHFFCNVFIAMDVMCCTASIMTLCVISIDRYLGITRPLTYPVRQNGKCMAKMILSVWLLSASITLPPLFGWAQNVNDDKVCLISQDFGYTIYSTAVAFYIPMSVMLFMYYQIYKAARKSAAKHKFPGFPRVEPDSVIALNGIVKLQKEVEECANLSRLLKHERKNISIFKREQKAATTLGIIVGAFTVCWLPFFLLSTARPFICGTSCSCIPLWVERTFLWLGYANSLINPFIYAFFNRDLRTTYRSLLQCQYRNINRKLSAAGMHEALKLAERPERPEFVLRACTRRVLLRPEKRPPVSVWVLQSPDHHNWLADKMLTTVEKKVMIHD
observation_type: Ki (nM)

[[record]]
mol_smiles = "O=c1c2cnc3ccccc3c2ncn1CCCCN1CCN(c2cccc(Cl)c2)CC1"
value_reported = 184

[[record]]
mol_smiles = "O=c1c2cnc3ccccc3c2ncn1CCCCN1CCN(c2ccccc2)CC1"
value_reported = 612

[[record]]
mol_smiles = "COc1cccc(N2CCN(CCCCn3cnc4c(cnc5ccccc54)c3=O)CC2)c1"
value_reported = 484

[[record]]
mol_smiles = "O=c1c2cnc3ccccc3c2ncn1CCCCN1CCN(c2ccc(F)cc2)CC1"
value_reported = 404


---

# subject_of_test: 5-hydroxytryptamine receptor 1A (Rattus norvegicus)
# Sequence (P19327 whole entry): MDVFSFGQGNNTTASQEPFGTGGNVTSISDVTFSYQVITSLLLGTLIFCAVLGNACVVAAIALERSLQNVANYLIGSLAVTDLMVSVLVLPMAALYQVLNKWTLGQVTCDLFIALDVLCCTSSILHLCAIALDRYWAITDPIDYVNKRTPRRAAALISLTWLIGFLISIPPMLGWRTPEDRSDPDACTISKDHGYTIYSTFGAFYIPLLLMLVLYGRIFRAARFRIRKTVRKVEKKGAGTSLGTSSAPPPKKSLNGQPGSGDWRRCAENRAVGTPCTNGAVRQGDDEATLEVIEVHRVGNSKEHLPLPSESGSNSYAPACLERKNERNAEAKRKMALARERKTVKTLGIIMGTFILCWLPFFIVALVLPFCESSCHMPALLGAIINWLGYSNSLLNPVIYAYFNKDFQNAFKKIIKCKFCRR
# experiment_description: Displacement of [3H]8-OH-DPAT from 5HT1A receptor in rat hippocampal membrane by radioligand binding assay
# Type: cell membranes, Hippocampus
pKi: −log10 of the molar value.
Please enter Fulfilled where pKi is greater than or equal to 7, and Not fulfilled where it is lower.

[[record]]
mol_smiles = "COc1ccccc1N1CCN(CCCn2cnc3c(cnc4ccccc43)c2=O)CC1"
assigned_label = "Fulfilled"

[[record]]
mol_smiles = "O=c1c2cnc3ccccc3c2ncn1CCCN1CCN(c2cccc(C(F)(F)F)c2)CC1"
assigned_label = "Not fulfilled"

[[record]]
mol_smiles = "Cc1ccc2c(c1)ncc1c(=O)n(CCN3CCN(c4cccc(C(F)(F)F)c4)CC3)cnc12"
assigned_label = "Not fulfilled"

[[record]]
mol_smiles = "COc1ccccc1N1CCN(CCCCn2cnc3c(cnc4ccccc43)c2=O)CC1"
assigned_label = "Fulfilled"

[[record]]
mol_smiles = "Cc1ccccc1N1CCN(CCn2cnc3c(cnc4ccccc43)c2=O)CC1"
assigned_label = "Not fulfilled"

